- Test system: ESR1 transcription in MVLN cells
- experiment-notes: MVLN reporter assay: repression of ESR1 transcription (luciferase signal)
- Assay type: cell-based
- test-parameters: Homo sapiens, MVLN, 24 h, luciferase signal after 24 h, read-out: MVLN reporter assay, IC50 [M] (arithmetic mean)
Would you kindly list IC50 for each of these compounds?

In the examples that follow, each entry is paired with its recorded IC50.
{"columns": ["compound", "tgt", "val"],
 "data": [
  ["O=C(NS(=O)(=O)c1csc2ccccc12)c1cc2c(F)cc(N3CCC3)cc2o1 [Example 178]", "ESR1 transcription in MVLN cells", "3.16e-07 M"],
  ["CC(C)Oc1cccc(Cl)c1S(=O)(=O)NC(=O)c1cc2c(F)cc(N3CCC3)cc2o1 [Example 29]", "ESR1 transcription in MVLN cells", "3.79e-07 M"],
  ["CCOc1ccc(C)cc1S(=O)(=O)NC(=O)c1cc2c(F)cc(N3CCC3)cc2o1 [Example 6]", "ESR1 transcription in MVLN cells", "7.45e-08 M"],
  ["CCOc1cc(F)ccc1S(=O)(=O)NC(=O)c1cc2c(F)cc(N3CCC3)cc2o1 [Example 208]", "ESR1 transcription in MVLN cells", "7.78e-08 M"],
  ["CCOC(=O)c1cn2cccc(S(=O)(=O)NC(=O)c3cc4c(F)cc(N5CCC5)cc4o3)c2n1 [Example 90]", "ESR1 transcription in MVLN cells", "> 2e-05 M"]
]}

For each of the items listed, what is its IC50?
1. O=C(NS(=O)(=O)c1ccccc1-c1ccccc1)c1cc2c(F)cc(N3CCC3)cc2o1 [Example 19]
2. CC(C)N(C)c1ccc(S(=O)(=O)NC(=O)c2cc3c(F)cc(N4CC(F)C4)cc3o2)c(F)c1F [Example 166]
3. O=C(NS(=O)(=O)c1ccnc2ccccc12)c1cc2c(F)cc(N3CC(F)C3)cc2o1 [Example 111]
4. CC(C)c1ccc(OCc2ccccc2)c(S(=O)(=O)NC(=O)c2cc3c(F)cc(N4CCC4)cc3o2)c1 [Example 213]
5. CCc1cccc(OC(C)C)c1S(=O)(=O)NC(=O)c1cc2c(F)cc(N3CCC3)cc2o1 [Example 84]

*A*
1. 2.06e-07 M
2. 7.22e-06 M
3. > 2e-05 M
4. 3.31e-08 M
5. 5.73e-07 M

====

- Tested on: ESR1 transcription in MVLN cells
- experiment-notes: MVLN reporter assay: repression of ESR1 transcription (luciferase signal)
- Type: cell-based
- test-parameters: Homo sapiens, MVLN, 24 h, luciferase signal after 24 h, read-out: MVLN reporter assay, IC50 [M] (arithmetic mean)
readout-kind: IC50 (M)
Answers are plain numbers, in M.

In the examples that follow, each entry is paired with its recorded IC50.
{"columns": ["molecule", "measure-unit", "IC50"],
 "data": [
  ["CCOc1cccc(OC)c1S(=O)(=O)NC(=O)c1cc2c(F)cc(N3CCC3)cc2o1 [Example 1]", "M", "3.89e-08"],
  ["CCOc1ccccc1S(=O)(=O)NC(=O)c1cc2c(F)cc(N3CCC3C(F)F)cc2o1 (racemic) [Example 163]", "M", "3.67e-06"]
]}

Below: the item to evaluate.
*Q* Please look up its IC50: COc1ccc(N2CCOCC2)cc1S(=O)(=O)NC(=O)c1cc2c(F)cc(N3CCC3)cc2o1 [Example 137]
*A* 1.74e-07
